- assayed_system: T1, LAG3 Protein, Human, Recombinant (His Tag) (Sino Biological Catalog No. 16498-H08H) (human, UniProt P18627 23-450)
- T1 construct: Bought protein; also called hLAG3-His; LAG3-His; not shown: His tag
- T1 sequence (looked up): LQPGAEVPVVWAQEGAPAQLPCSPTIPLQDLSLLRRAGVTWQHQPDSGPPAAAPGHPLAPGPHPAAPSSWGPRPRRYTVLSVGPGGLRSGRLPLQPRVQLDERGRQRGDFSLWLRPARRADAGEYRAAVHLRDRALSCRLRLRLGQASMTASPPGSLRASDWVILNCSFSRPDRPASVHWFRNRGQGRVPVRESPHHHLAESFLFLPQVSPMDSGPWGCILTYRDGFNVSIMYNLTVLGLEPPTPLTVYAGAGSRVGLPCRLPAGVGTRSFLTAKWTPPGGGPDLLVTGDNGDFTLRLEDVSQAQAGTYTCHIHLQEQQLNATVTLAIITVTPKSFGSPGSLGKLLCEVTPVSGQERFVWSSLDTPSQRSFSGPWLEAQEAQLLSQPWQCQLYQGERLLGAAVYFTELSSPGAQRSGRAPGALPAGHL
- test_protocol: ELISA, coated hLAG3-His
- Description: Plates were coated with 100 µL per well of Coating Solution, and then covered, and incubated overnight (12-18 hours) at 2-8° C. The wells were aspirated and washed 1 time with >200 µL of Wash buffer per well, inverted and tapped on absorbent paper to remove excess liquid. The plates were blocked with 200 µL per well with Blocking buffer (1×PBS+4% milk) for 1 hour at room temperature, aspirated, inverted, and tapped on absorbent paper to remove excess liquid. […]
Entries whose EC50 is below 3 nM take criterion met; entries at or above 3 nM take criterion not met.

INSERT INTO results (binder, classification) VALUES
  ('sdAb No. 27-H1 (VHH, Modified sdAb No. 27 (CDR2 DG to DA); not shown: Fc part implied by anti-human IgG1 Fc detection) VHH: QVQLVESGGGLVQPGGSLRLSCAASGFTLDYYAIGWFRQAPGKEREGVSCIRSSDASTYYADSVKGRFTISSDNTKNTVYLQMNSLKPEDTAVYYCATDRYSDCRGPYENWGQGTQVTVSS', 'criterion not met'),
  ('sdAb No. 27 (VHH, Fc of the tested form not described; also called sdAb 27; not shown: Fc part implied by anti-human Fc capture and anti-human IgG Fc detection) VHH: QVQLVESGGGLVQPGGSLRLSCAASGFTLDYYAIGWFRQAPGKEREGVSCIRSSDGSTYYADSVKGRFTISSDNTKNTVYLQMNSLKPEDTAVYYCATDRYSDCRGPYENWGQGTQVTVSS', 'criterion not met'),
  ('sdAb No. 17-H5 (VHH, Modified sdAb No. 17 (CDR1 and CDR2 DG to DA); not shown: Fc part implied by anti-human IgG1 Fc detection) VHH: QLQLVESGGGLVQPGGSLRLSCAASGLTLDAYAIGWFRQAPGKEREGLACISGSDASTHYLDSVKGRFTISRDNGKNTMALQMNSLQFGDTAIYYCAARRGSCSGSWTYWGQGTQVTVSS', 'criterion met'),
  ('sdAb No. 17 (VHH, Fc of the tested form not described; also called sdAb 17; not shown: Fc part implied by anti-human Fc capture and anti-human IgG1 Fc detection) VHH: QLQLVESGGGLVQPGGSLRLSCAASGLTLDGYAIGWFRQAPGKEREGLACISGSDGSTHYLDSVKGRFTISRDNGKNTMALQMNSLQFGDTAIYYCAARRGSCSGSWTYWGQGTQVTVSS', 'criterion met');

Pending binder:
[ask] Just wondering, is EC50 of sdAb No. 27-H2 (VHH, Modified sdAb No. 27 (CDR2 DG to EG); not shown: Fc part implied by anti-human IgG1 Fc detection) VHH: QVQLVESGGGLVQPGGSLRLSCAASGFTLDYYAIGWFRQAPGKEREGVSCIRSSEGSTYYADSVKGRFTISSDNTKNTVYLQMNSLKPEDTAVYYCATDRYSDCRGPYENWGQGTQVTVSS below 3 nM?
[reply] criterion not met
